tested on: SN12C; experiment: NCI tumour cell line growth inhibition, 48 h
Activity calls are given as the source filed them. Rule as the data show it: active = GI50 up to about 1.1 µM and inactive = higher.
Quantity: GI50

Item N#CC1(Cc2ccccc2Cl)c2ccccc2C=CN1C(=O)c1ccccc1 (stereo unspecified) ; assay system SN12C; GI50 reported as 77.8 µM (inactive)

The reported SN12C GI50 of "Cc1oc(N)c(S(=O)(=O)/C(C#N)=C/c2ccccc2[N+](=O)[O-])c1C" is 22.9 µM (inactive)

Measured GI50 for this entry "O=C(c1ccc2c3c(ccc(C(=O)C(F)(F)F)c13)CC2)C(F)(F)F" on SN12C: 92.9 µM (inactive)

# Cc1cc(N(CC(C)Br)CC(C)Br)ccc1/N=N/c1ccccc1C(=O)O (stereo unspecified) with SN12C: GI50 is 4.72 µM (inactive)

SN12C data for COC1CC(OC2C(C)OC(OC3C(C)OC(OC4C(C)OC(O[C@H]5CC[C@@]6(C)C(=CC[C@]7(O)[C@@H]6C[C@@H](O)[C@@]6(C)[C@]7(O)CC[C@@]6(O)C(C)=O)C5)CC4OC)CC3OC)CC2OC)OC(C)C1O (stereo partly specified) ; its GI50: > 12.5 µM (inactive)

Measured GI50 for this entry CN(C(=O)/C=C/c1ccccc1)C1C2CN3CCC(O2)C13 (stereo unspecified) on SN12C: > 100 µM (inactive)

GET /values?item= "COc1cc(O)c2c(O)c3c(c4c2c1[C@]1(C4)C(C)=CCCC1(C)C)[C@H](O)[C@@]1(O)CC(O)=C(C(N)=O)C(=O)[C@@]1(O)C3=O" &system= SN12C returns GI50: 0.0531 µM (active)

Case "Cc1nc2c(sc(=S)n2-c2ccccc2)c2nc3ncccc3n12" , SN12C, GI50 recorded as 46.2 µM (inactive)

Record "COc1c(N2CCCCC2)c2c(=O)c3ccccc3oc2c2cc(C)oc12" ; system SN12C; GI50 = 24.8 µM (inactive)

# "CCOC(=O)c1nc2ccc(C(F)(F)F)cc2nc1Oc1cc(OC)c(OC)c(OC)c1" with SN12C: GI50 is > 100 µM (inactive)

Item: "c1ccc(C2=NCCN2)c(C2=NCCN2)c1" | System: SN12C | GI50: > 100 µM (inactive)

Short answer on SN12C for "Cc1c2ccncc2c(C)c2c1[nH]c1ccc(O)c(OCC(F)(F)F)c12" , GI50: 8.2 µM (inactive)

Tested system SN12C; GI50 recorded for COc1cc(C2S/C(=C/c3ccccc3)C(=O)N2c2ccc(Cl)c(Cl)c2)cc(OC)c1OC (stereo unspecified) was > 61.4 µM (inactive)

// returns GI50 for Cc1cn(CCCCCCOC(=O)NC(CCCNC(N)=O)C(=O)O)c(=O)[nH]c1=O (stereo unspecified) with SN12C; value = > 100 µM (inactive)

The measured GI50 that "Cc1nn2c(N)cc(=O)nc2nc1/C=C/c1ccc(N(C)C)cc1" showed for SN12C is > 65.6 µM (inactive)

// molecule "Cc1cc(C)c(S(=O)(=O)N(CCCN)OCCCON(CCCN)S(=O)(=O)c2c(C)cc(C)cc2C)c(C)c1" , assay SN12C, GI50 value: 3.91 µM (inactive)

---

system: NCI-H23; experiment: NCI tumour cell line growth inhibition, 48 h
Calls of active or inactive are those of the source. Cut-off read from the data, not from the text of the source: active = GI50 up to about 1.1 µM and inactive = higher.
The reply should be one of these categories: t = active, f = inactive

INPUT: Hello, I am checking results. What call was entered for "CC(C)(C)c1cc(C=C(C#N)C#N)cc(C(C)(C)C)c1O" ?
OUTPUT: t

INPUT: Record request — test call for CC1CCC(C(C)C)C(O[C@@H]2OC(=O)C[C@@H]2Sc2ccccc2)C1 (stereo not given in full)
OUTPUT: f

INPUT: Any idea what this test logged for "Oc1ccc2ccccc2c1C(c1ccc(Cl)cc1)c1c(O)ccc2ccccc12" ?
OUTPUT: f

INPUT: Dear all, I need the recorded test outcome for "O=C(O/N=C1\CCCC\C1=C/c1ccccc1)c1ccc([N+](=O)[O-])cc1" , thank you.
OUTPUT: f

INPUT: Entry "CC(=O)Oc1ccc(/C=C/C(=O)O[C@@H](C)[C@H](C)OC(=O)/C=C/c2ccc(OC(C)=O)c(OC(C)=O)c2)cc1OC(C)=O" : call = ?
OUTPUT: f

INPUT: Outcome? "CC(=O)N(C)OC(=O)CC(=O)c1ccccc1"
OUTPUT: f

INPUT: // outcome(item) with item = "O=C(CCBr)N1CCN(C(=O)CCBr)CC1"
OUTPUT: f

INPUT: Hi, sorry to bother you, what did the test record for "C[n+]1[n-]o/c(=N\N=O)c1-c1cc(-c2/c(=N/N=O)o[n-][n+]2C)cc(-c2/c(=N\N=O)o[n-][n+]2C)c1" ?
OUTPUT: f

INPUT: Recorded test outcome, item "O=C(Cc1nc2ncccc2[nH]c1=O)c1c[nH]c2ccccc12"
OUTPUT: f

INPUT: For "COc1ccc2oc3c(ccc[n+]3C)c(=O)c2c1" , which call appears in the assay record?
OUTPUT: f

---

system: OVCAR-3; assay: NCI tumour cell line growth inhibition, 48 h
Active and inactive are the calls of the source. No stated cut-off is given here; in the data, active = GI50 up to about 1.1 µM and inactive = higher. Where a SMILES comes first, the peptide text is derived from it. [ ]: non-standard residue; d: D form. The star is where a group is joined. ξ: configuration not given here. ξF = NC(Cc1ccccc1)C(=O)O; Cbz = O=C(OCc1ccccc1)*; Aib = CC(C)(N)C(=O)O; NHNH2 = NN*
Pick one: true (1) = active, false (0) = inactive

INPUT: For CC12CC[C@@H](C(C)(C)O)C1[C@@H](O)CC1(C)C2CCC2[C@@]3(C)CC[C@H](O)C(C)(C)C3C(O)C[C@]21C (stereo not given in full) , what call appears in the results of this test?
OUTPUT: false (0)

INPUT: Answer briefly: the call reported for "Nc1ccc(-c2nc3ccc(F)cc3s2)cc1" in this assay.
OUTPUT: false (0)

INPUT: Hi, sorry to bother you, what did the test record for "COCCN(CCNC(=O)c1cccc2c(N)c3cccc(C)c3nc12)CCOC" ?
OUTPUT: false (0)

INPUT: Just curious, what result did "CCC1(CC)N=C(C(F)(F)F)c2cc(C(=O)C(F)(F)F)c3ccccc3c2N1" get here?
OUTPUT: false (0)

INPUT: Returns: the outcome recorded for "COc1ccc(C(=O)c2cc(OC)c(OC)c(OC)c2)cc1" in this assay.
OUTPUT: true (1)

INPUT: Which result was noted for this molecule in the test: "FC(F)(F)C1(Cl)C(c2ccccc2)=C1c1ccccc1"
OUTPUT: false (0)

INPUT: Please share the test call associated with "CCOc1ccccc1/C=C(/C#N)C(N)=O" .
OUTPUT: false (0)

INPUT: How did this test come out for CCC1=C(CC2NCCc3cc(OC)c(OC)cc32)CC2c3ccccc3CCN2C1 (stereo not given) ?
OUTPUT: false (0)

INPUT: What was the test verdict on "Oc1[nH]c(Nc2ccc(Cl)cc2)nc2ncnc1-2" ?
OUTPUT: false (0)

INPUT: I'd appreciate the recorded outcome for CC(C)(NC(=O)OCc1ccccc1)C(=O)NC(Cc1ccccc1)C(=O)NN (stereo not given) (Cbz-[Aib]-[ξF]-NHNH2) from this test.
OUTPUT: false (0)

INPUT: // return assay outcome for "Cn1c(N)c(-c2c3ccccc3nc3ccccc23)c(=O)n(C)c1=O"
OUTPUT: false (0)

INPUT: For this molecule, state the assay outcome: "O=C(c1ccc2c3c(ccc(C(=O)C(F)(F)F)c13)CC2)C(F)(F)F"
OUTPUT: false (0)

INPUT: Check the results log: what was the call for "COc1c(N2CCCCC2)c2c(=O)c3ccccc3oc2c2cc(C)oc12" ?
OUTPUT: false (0)

INPUT: Hey, what did the test say about "O=C(O)c1nc2ccc(C(F)(F)F)cc2nc1Nc1ccc(F)cc1" ?
OUTPUT: false (0)

INPUT: // param item: "O=S(=O)(c1ccc2ccccc2c1)N1CCN(S(=O)(=O)c2ccc3ccccc3c2)CC1" ; yields the recorded call
OUTPUT: false (0)

INPUT: How did this test come out for "COc1ccc(CNc2nc3ccccc3nc2-c2cccs2)cc1OC" ?
OUTPUT: false (0)

INPUT: Which outcome was entered for the molecule "Cc1nnc2n1N=C(c1ccc(-c3ccc([N+](=O)[O-])cc3)o1)CS2" in this test?
OUTPUT: false (0)

INPUT: Dear colleague, could you share the recorded outcome for "N#C/C(N)=C(C#N)/N=C/Nc1ccccc1N" when you have a moment?
OUTPUT: false (0)

INPUT: Recorded call for "CNC(=S)/C(C#N)=C(\N)N1CCCC1" ?
OUTPUT: false (0)

INPUT: # lookup: test call for "CC(C)OC(=O)/C=C/C(=O)O/C=C/[N+](=O)[O-]"
OUTPUT: false (0)

INPUT: Would you mind telling me which call this test gave "COc1ccc2oc3c(ccc[n+]3C)c(=O)c2c1" ?
OUTPUT: false (0)

INPUT: Could you check what this test reported for "CC(=O)Oc1c(OC(C)C)c(C)c(O[Si](C(C)C)(C(C)C)C(C)C)c2[nH]c3ccccc3c12" ?
OUTPUT: false (0)

INPUT: Query: recorded result category for COC1CC(OC2C(C)OC(OC3C(C)OC(OC4C(C)OC(O[C@H]5CC[C@@]6(C)C(=CC[C@]7(O)[C@@H]6C[C@@H](O)[C@@]6(C)[C@]7(O)CC[C@@]6(O)C(C)=O)C5)CC4OC)CC3OC)CC2OC)OC(C)C1O (stereo not given in full) in this test
OUTPUT: false (0)

INPUT: Recorded test call requested for "CCOC(=O)c1c(N2CCCC2)ncn(C)c1=S"
OUTPUT: false (0)

INPUT: Which result was noted for this molecule in the test: "C1CNCCN2CCCNCCN(C1)CC2"
OUTPUT: false (0)

INPUT: Give the logged outcome of this assay for the following molecule: "O=C1CCc2cc([N+](=O)[O-])ccc2O1"
OUTPUT: false (0)

INPUT: What was the test verdict on "N[C@H](C(=O)O)[C@H](Cl)CC(=O)O" ?
OUTPUT: false (0)

INPUT: Recorded test outcome, item COc1ccc2c(c1)CCN1CCCc3ccccc3C21 (stereo not given)
OUTPUT: false (0)

INPUT: Please let me know the test result on file for "COC(=O)CSSCc1ccc([N+](=O)[O-])cc1" .
OUTPUT: false (0)

INPUT: Per the records of this test, what outcome belongs to CCCCCCCCCCCCCCCC(=O)OCC1OC(n2ccc(N)nc2=O)C(O)C1O (stereo not given) ?
OUTPUT: false (0)
